- system under test: Dual specificity protein kinase CLK1 (Mus musculus) (UniProt P22518)
- Sequence (P22518 whole entry, looked up): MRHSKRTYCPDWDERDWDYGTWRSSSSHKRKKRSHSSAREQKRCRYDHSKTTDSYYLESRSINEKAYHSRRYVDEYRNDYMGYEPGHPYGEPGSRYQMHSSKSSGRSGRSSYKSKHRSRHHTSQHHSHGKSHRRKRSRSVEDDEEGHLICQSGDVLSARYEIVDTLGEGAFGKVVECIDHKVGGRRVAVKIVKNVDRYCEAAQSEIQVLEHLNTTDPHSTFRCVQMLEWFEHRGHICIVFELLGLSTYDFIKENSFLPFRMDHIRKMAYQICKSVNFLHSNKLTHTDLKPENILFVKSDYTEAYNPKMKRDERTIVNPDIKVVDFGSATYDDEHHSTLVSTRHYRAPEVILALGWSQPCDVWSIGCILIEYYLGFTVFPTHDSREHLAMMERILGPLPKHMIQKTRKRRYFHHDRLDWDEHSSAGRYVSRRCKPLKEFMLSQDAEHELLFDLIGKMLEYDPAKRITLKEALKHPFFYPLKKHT
- procedure text: Inhibition of recombinant mouse CLK1 expressed in bacteria assessed as residual activity at 1 uM using GRSRSRSRSRSR as substrate in presence of [gamma-33P]ATP relative to control
Threshold 20%. Activity below it: Condition met. Activity at it or above: Condition not met.

{"smiles notation": "CN1CCN(CCCNc2ncc3cc4cnccc4c(N)c3n2)CC1", "system under test": "Dual specificity protein kinase CLK1 (Mus musculus) (UniProt P22518)", "label class": "Condition met"}
{"smiles notation": "CN1CCN(CCNc2ncc3cc4cnccc4c(N)c3n2)CC1", "system under test": "Dual specificity protein kinase CLK1 (Mus musculus) (UniProt P22518)", "label class": "Condition not met"}
{"smiles notation": "CN(C)CCNc1ncc2cc3cnccc3c(N)c2n1", "system under test": "Dual specificity protein kinase CLK1 (Mus musculus) (UniProt P22518)", "label class": "Condition not met"}
{"smiles notation": "O=[N+]([O-])c1c2ccncc2cc2cnc(NCCCN3CCCC3)nc12", "system under test": "Dual specificity protein kinase CLK1 (Mus musculus) (UniProt P22518)", "label class": "Condition not met"}
{"smiles notation": "CNc1ncc2cc3cnccc3c([N+](=O)[O-])c2n1", "system under test": "Dual specificity protein kinase CLK1 (Mus musculus) (UniProt P22518)", "label class": "Condition met"}
{"smiles notation": "CN(C)CCNc1ncc2cc3cnccc3c([N+](=O)[O-])c2n1", "system under test": "Dual specificity protein kinase CLK1 (Mus musculus) (UniProt P22518)", "label class": "Condition not met"}

----------
- system under test: Dual specificity tyrosine-phosphorylation-regulated kinase 1A (Rattus norvegicus) (UniProt Q63470)
- procedure text: Inhibition of rat DYRK1A kinase domain (1 to 499 residues) expressed in bacteria assessed as residual activity at 10 uM using KKISGRLSPIMTEQ as substrate in presence of [gamma-33P]ATP relative to control
Overview of reported Activity across a group of compounds:
value type: Activity (%)

{"smiles notation": "CN(C)CCCNc1ncc2cc3cnccc3c(N)c2n1", "reported measurement": 1}
{"smiles notation": "O=[N+]([O-])c1c2ccncc2cc2cnc(NCCN3CCCCC3)nc12", "reported measurement": 26}
{"smiles notation": "O=[N+]([O-])c1c2ccncc2cc2cnc(NCCN3CCOCC3)nc12", "reported measurement": 20}
{"smiles notation": "CNc1ncc2cc3cnccc3c(N)c2n1", "reported measurement": 1}
{"smiles notation": "CCN(CC)CCNc1ncc2cc3cnccc3c([N+](=O)[O-])c2n1", "reported measurement": 47}
{"smiles notation": "CCN(CC)CCCNc1ncc2cc3cnccc3c(N)c2n1", "reported measurement": 2}
{"smiles notation": "Nc1c2ccncc2cc2cnc(NCCCN3CCCC3)nc12", "reported measurement": 1}
{"smiles notation": "CN1CCN(CCCNc2ncc3cc4cnccc4c(N)c3n2)CC1", "reported measurement": 1}
{"smiles notation": "Nc1c2ccncc2cc2cnc(NCCN3CCOCC3)nc12", "reported measurement": 1}
{"smiles notation": "Nc1c2ccncc2cc2cnc(NCCCN3CCOCC3)nc12", "reported measurement": 6}
{"smiles notation": "O=[N+]([O-])c1c2ccncc2cc2cnc(NCCCN3CCOCC3)nc12", "reported measurement": 10}

----------
Overview of reported Activity across a group of compounds:
- system under test: Cyclin-dependent kinase 5/CDK5 activator 1 (Homo sapiens) (UniProt Q00535+Q15078)
- Sequence (Q00535 whole entry): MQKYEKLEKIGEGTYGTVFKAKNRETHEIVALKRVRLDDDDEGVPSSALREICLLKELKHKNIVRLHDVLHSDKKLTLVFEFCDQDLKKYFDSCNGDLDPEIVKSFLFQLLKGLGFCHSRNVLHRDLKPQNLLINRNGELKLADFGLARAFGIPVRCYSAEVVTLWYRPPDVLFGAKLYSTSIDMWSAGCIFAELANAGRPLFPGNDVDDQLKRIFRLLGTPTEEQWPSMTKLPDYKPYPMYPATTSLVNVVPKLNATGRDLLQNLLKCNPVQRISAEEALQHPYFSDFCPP
- Sequence (Q15078 99-307 partner limits assumed): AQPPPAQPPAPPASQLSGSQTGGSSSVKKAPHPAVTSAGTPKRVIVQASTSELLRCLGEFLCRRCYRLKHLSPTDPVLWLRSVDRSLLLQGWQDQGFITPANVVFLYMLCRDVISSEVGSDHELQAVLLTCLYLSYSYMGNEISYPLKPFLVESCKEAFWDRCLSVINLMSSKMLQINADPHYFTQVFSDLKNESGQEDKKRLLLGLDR
- procedure text: Inhibition of recombinant human CDK5/p25 expressed in bacteria assessed as residual activity at 10 uM using histone H1 as substrate in presence of [gamma-33P]ATP relative to control
value type: Activity (%)

{"smiles notation": "Nc1c2ccncc2cc2cnc(NCCCN3CCOCC3)nc12", "reported measurement": 23}
{"smiles notation": "Nc1c2ccncc2cc2cnc(NCCN3CCCCC3)nc12", "reported measurement": 76}
{"smiles notation": "CN(C)CCCNc1ncc2cc3cnccc3c([N+](=O)[O-])c2n1", "reported measurement": 64}
{"smiles notation": "CN1CCN(CCCNc2ncc3cc4cnccc4c([N+](=O)[O-])c3n2)CC1", "reported measurement": 48}
{"smiles notation": "CN1CCN(CCCNc2ncc3cc4cnccc4c(N)c3n2)CC1", "reported measurement": 15}
{"smiles notation": "O=[N+]([O-])c1c2ccncc2cc2cnc(NCCCN3CCCC3)nc12", "reported measurement": 50}
{"smiles notation": "CCN(CC)CCCNc1ncc2cc3cnccc3c([N+](=O)[O-])c2n1", "reported measurement": 50}
{"smiles notation": "Nc1c2ccncc2cc2cnc(NCCCN3CCCCC3)nc12", "reported measurement": 62}
{"smiles notation": "CCN(CC)CCCNc1ncc2cc3cnccc3c(N)c2n1", "reported measurement": 20}
{"smiles notation": "O=[N+]([O-])c1c2ccncc2cc2cnc(NCCN3CCCC3)nc12", "reported measurement": 83}
{"smiles notation": "Nc1c2ccncc2cc2cnc(NCCCN3CCCC3)nc12", "reported measurement": 44}
{"smiles notation": "O=[N+]([O-])c1c2ccncc2cc2cnc(NCCN3CCCCC3)nc12", "reported measurement": 85}
{"smiles notation": "Nc1c2ccncc2cc2cnc(-c3ccccc3)nc12", "reported measurement": 65}
{"smiles notation": "CN1CCN(CCNc2ncc3cc4cnccc4c(N)c3n2)CC1", "reported measurement": 55}
{"smiles notation": "CCN(CC)CCNc1ncc2cc3cnccc3c([N+](=O)[O-])c2n1", "reported measurement": 79}
{"smiles notation": "CNc1ncc2cc3cnccc3c([N+](=O)[O-])c2n1", "reported measurement": 38}
{"smiles notation": "CNc1ncc2cc3cnccc3c(N)c2n1", "reported measurement": 3}
{"smiles notation": "CN(C)CCNc1ncc2cc3cnccc3c(N)c2n1", "reported measurement": 86}
{"smiles notation": "O=[N+]([O-])c1c2ccncc2cc2cnc(-c3ccccc3)nc12", "reported measurement": 62}
{"smiles notation": "CN(C)CCNc1ncc2cc3cnccc3c([N+](=O)[O-])c2n1", "reported measurement": 52}
{"smiles notation": "O=[N+]([O-])c1c2ccncc2cc2cnc(NCCCN3CCCCC3)nc12", "reported measurement": 53}
{"smiles notation": "CN(C)CCCNc1ncc2cc3cnccc3c(N)c2n1", "reported measurement": 34}
{"smiles notation": "CCN(CC)CCNc1ncc2cc3cnccc3c(N)c2n1", "reported measurement": 40}
{"smiles notation": "O=[N+]([O-])c1c2ccncc2cc2cnc(NCCCN3CCOCC3)nc12", "reported measurement": 60}
{"smiles notation": "Nc1c2ccncc2cc2cnc(NCCN3CCCC3)nc12", "reported measurement": 51}
{"smiles notation": "Nc1c2ccncc2cc2cnc(NCCN3CCOCC3)nc12", "reported measurement": 10}
{"smiles notation": "CN1CCN(CCNc2ncc3cc4cnccc4c([N+](=O)[O-])c3n2)CC1", "reported measurement": 77}
{"smiles notation": "O=[N+]([O-])c1c2ccncc2cc2cnc(NCCN3CCOCC3)nc12", "reported measurement": 69}

----------
- System: MDA-MB-231
- procedure text: Antiproliferative activity against human MDA-MB-231 cells assessed as cell viability at 2 uM after 48 hrs by CellTiter96 AQueous assay relative to control
- Type: functional
- test parameters: read-out: Activity
Field 'label' (enum: t / f). Set to t when viability at 2 µM is strictly under 10%; else f.

{"compound": "CN[C@@H]1C[C@H]2O[C@@](C)([C@@H]1OC)n1c3ccccc3c3c4c(c5c6ccccc6n2c5c31)C(=O)NC4 [STAUROSPORINE]", "label class": "t"}
{"compound": "Nc1ncc2cc3cnccc3c(N)c2n1", "label class": "f"}
{"compound": "O=[N+]([O-])c1c2ccncc2cc2cnc(NCCCN3CCOCC3)nc12", "label class": "f"}
{"compound": "CN1CCN(CCCNc2ncc3cc4cnccc4c([N+](=O)[O-])c3n2)CC1", "label class": "f"}
{"compound": "Nc1c2ccncc2cc2cnc(NCCCN3CCOCC3)nc12", "label class": "f"}

----------
Listed next: entries and their corresponding Activity.
- system under test: Glycogen synthase kinase-3 (Sus scrofa) (UniProt B2LUN4+I6LNT8)
- procedure text: Inhibition of porcine brain GSK-3alpha/beta assessed as residual activity at 1 uM using YRRAAVPPSPSLSRHSSPHQSpEDEEE as substrate in presence of [gamma-33P]ATP relative to control
- Type: tissue-based
- test parameters: Sus scrofa domesticus
value type: Activity (%)

{"smiles notation": "CN1CCN(CCNc2ncc3cc4cnccc4c([N+](=O)[O-])c3n2)CC1", "value type": "Activity", "reported measurement": 69}
{"smiles notation": "O=[N+]([O-])c1c2ccncc2cc2cnc(NCCCN3CCCC3)nc12", "value type": "Activity", "reported measurement": 78}
{"smiles notation": "CN(C)CCNc1ncc2cc3cnccc3c(N)c2n1", "value type": "Activity", "reported measurement": 58}
{"smiles notation": "CN1CCN(CCCNc2ncc3cc4cnccc4c(N)c3n2)CC1", "value type": "Activity", "reported measurement": 35}
{"smiles notation": "CN1CCN(CCCNc2ncc3cc4cnccc4c([N+](=O)[O-])c3n2)CC1", "value type": "Activity", "reported measurement": 59}
{"smiles notation": "O=[N+]([O-])c1c2ccncc2cc2cnc(NCCN3CCCC3)nc12", "value type": "Activity", "reported measurement": 81}
